- target_under_test: CaV1.3 LTCCs (Rattus norvegicus, UniProt P27732)
- Sequence (P27732 921-1530 limits assumed): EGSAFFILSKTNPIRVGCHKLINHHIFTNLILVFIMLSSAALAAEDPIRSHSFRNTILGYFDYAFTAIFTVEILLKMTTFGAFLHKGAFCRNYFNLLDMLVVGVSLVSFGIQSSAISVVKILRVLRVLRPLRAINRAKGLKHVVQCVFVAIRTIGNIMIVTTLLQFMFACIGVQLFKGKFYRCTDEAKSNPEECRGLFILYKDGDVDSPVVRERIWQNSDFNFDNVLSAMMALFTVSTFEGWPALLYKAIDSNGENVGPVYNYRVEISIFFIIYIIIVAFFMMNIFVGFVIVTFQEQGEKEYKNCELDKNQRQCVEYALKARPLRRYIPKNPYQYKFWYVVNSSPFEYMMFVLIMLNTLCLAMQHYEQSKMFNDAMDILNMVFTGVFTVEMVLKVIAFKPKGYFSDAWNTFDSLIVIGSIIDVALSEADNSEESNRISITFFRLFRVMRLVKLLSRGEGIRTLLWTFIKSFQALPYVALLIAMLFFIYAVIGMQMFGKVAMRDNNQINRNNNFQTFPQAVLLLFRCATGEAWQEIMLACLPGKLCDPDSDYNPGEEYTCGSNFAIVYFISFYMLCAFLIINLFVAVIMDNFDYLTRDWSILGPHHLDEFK
assay_readout: pKi
The read-out pKi is expressed as -log10 of concentration in moles per litre.

Ask: Provide value of pKi for this record tested with CaV1.3 LTCCs (Rattus norvegicus, UniProt P27732): COC(=O)C1=C(C)NC(C)=C(C(=O)OC(C)C)C1c1cccc2nonc12 (stereo not shown) [isradipine, reference compound]
Result: 7.17

---

- target_under_test: UniProt P15381
- Sequence (P15381 whole entry): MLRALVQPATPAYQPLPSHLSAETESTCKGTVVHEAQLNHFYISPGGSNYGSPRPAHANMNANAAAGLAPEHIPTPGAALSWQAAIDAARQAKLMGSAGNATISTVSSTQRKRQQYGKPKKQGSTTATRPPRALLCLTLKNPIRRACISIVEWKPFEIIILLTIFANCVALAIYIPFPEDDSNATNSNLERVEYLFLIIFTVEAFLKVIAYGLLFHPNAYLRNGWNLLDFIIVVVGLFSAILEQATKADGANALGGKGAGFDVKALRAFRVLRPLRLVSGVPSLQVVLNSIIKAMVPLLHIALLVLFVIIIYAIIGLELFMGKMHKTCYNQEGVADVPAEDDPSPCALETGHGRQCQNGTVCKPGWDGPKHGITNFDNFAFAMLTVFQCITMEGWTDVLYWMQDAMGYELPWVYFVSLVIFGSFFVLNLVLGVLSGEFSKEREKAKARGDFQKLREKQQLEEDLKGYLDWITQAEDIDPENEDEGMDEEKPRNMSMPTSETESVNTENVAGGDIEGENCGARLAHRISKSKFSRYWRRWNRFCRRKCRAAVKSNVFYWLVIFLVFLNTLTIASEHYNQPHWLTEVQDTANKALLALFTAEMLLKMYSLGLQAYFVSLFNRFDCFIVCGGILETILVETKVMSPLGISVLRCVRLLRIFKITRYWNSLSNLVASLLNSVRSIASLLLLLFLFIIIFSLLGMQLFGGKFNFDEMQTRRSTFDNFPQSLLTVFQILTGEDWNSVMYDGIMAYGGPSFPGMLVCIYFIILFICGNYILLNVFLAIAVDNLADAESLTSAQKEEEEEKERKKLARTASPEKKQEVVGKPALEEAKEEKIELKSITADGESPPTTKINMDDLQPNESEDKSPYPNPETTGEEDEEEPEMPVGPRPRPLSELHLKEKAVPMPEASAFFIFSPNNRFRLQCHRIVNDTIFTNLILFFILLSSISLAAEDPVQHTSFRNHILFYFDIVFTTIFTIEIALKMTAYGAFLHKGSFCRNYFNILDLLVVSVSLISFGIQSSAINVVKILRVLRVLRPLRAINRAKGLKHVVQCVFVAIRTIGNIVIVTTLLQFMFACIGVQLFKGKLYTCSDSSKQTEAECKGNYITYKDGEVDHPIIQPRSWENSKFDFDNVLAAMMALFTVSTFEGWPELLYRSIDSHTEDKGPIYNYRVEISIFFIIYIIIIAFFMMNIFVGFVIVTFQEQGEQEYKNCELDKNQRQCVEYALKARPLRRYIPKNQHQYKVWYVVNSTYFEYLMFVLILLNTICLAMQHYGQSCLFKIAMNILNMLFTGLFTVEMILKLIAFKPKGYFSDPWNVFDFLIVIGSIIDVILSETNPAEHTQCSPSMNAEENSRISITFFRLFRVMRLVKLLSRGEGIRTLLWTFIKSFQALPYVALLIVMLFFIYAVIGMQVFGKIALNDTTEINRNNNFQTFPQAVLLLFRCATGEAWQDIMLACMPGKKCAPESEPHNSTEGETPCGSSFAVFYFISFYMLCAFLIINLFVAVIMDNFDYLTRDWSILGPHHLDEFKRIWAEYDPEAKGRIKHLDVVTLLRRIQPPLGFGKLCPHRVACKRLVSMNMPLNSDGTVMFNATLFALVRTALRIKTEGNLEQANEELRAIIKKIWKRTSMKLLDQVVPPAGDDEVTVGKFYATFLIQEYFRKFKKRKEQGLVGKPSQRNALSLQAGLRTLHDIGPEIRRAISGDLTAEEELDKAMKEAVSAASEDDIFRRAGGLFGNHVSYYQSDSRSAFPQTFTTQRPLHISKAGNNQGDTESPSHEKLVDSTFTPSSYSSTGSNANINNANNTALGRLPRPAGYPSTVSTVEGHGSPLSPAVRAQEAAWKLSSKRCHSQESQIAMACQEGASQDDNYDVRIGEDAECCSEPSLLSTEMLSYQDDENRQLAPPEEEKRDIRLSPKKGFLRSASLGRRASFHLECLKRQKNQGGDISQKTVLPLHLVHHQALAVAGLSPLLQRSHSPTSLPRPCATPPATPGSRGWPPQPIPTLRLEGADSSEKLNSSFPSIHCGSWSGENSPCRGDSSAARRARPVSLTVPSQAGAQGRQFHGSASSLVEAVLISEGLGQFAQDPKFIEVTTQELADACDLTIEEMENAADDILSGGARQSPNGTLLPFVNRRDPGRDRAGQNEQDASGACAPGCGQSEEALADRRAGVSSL
- Sequence (P54287 whole entry partner): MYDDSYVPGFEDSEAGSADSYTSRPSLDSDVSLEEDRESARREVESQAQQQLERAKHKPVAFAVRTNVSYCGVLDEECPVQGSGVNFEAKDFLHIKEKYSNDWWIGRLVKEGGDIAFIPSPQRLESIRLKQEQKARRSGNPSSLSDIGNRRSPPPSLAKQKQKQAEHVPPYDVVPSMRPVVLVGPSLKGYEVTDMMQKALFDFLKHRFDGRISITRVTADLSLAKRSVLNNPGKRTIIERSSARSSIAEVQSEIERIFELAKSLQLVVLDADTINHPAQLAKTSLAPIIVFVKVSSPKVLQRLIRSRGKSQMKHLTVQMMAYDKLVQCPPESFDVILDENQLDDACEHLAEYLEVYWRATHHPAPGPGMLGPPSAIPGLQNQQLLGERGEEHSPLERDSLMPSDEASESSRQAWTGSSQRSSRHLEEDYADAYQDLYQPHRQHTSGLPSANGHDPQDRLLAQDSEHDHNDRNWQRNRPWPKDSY
- Sequence (P54290 25-944 partner limits assumed): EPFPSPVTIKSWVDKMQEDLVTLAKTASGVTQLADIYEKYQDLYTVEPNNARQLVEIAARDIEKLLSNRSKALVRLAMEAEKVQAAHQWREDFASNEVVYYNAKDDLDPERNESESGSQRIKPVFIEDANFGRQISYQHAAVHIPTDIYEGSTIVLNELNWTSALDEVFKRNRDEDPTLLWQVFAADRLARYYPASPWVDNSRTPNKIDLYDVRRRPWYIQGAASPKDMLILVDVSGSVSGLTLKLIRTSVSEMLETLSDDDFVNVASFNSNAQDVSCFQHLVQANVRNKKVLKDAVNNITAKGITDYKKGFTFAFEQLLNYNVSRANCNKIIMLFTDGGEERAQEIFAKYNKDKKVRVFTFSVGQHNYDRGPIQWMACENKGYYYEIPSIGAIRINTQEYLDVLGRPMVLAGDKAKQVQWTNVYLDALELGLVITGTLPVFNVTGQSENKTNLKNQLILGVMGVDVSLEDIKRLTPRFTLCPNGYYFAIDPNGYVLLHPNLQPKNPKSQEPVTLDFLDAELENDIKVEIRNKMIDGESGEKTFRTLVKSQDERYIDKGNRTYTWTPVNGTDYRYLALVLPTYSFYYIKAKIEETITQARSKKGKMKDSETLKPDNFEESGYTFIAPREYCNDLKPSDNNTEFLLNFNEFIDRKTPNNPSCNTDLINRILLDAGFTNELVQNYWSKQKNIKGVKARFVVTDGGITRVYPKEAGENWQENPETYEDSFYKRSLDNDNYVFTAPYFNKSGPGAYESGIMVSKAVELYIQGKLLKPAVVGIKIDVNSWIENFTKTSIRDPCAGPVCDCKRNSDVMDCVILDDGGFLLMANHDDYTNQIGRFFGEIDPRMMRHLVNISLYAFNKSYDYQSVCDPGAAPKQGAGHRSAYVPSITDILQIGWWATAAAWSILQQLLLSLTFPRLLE
- Sequence (P54290 945-1091 partner limits assumed): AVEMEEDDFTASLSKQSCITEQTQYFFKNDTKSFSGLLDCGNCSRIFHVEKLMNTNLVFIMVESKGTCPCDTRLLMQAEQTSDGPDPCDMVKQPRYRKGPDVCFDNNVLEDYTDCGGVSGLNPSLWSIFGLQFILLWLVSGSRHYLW
- method_summary: Whole-cell patch clamp, wild-type CaV1.2 channels
- Type: cell-based, rabbit
- test_settings: rabbit, pH 7.4
assay_readout: inhibition at 100 µM (%)
# unit: % | format: bare number

Ask: Recall the recorded inhibition at 100 µM for O=C1CC(=O)N(C2CCCC2)C(=O)N1CCc1cccc(Cl)c1 [cp-PYT] with UniProt P15381 and state it.
Result: 21

Where do these numbers come from? They come from paper PMC7502546.
